The reader will find reported koff values listed item by item below.
target: T1, hu-IL-36β (human IL-36β, N-terminally truncated active form R5-E157) (human)
T1 construct: Purification tag cleaved off; Biotinylated where captured; also called hu-IL-36b
T1 chain: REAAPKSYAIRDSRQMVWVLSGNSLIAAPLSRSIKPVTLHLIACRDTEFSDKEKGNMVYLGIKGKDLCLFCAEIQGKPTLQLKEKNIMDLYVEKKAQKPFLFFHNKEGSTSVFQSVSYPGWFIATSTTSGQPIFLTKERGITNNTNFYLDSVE
test.description: SPR (Biacore 8K), biotinylated hu-IL-36β captured on CAP chip, Fab injected, 37°C
Please state the figure in s⁻¹; there is no need to write the unit.

{"binder": "mAb6_2.6 Fab (Fab, V domains shown, Recombinant Fab with 8xHis tag (Expi293F)) VH: ELQLQESGPGLVKPSETLSLTCTVSGGSITASNYYWGWIRQPPGKGLEWIGSIDYTGSTYYEPSLKSRVTISVDTSKNQFSLKLSSVTAADTAVYYCATGNYYETYLGFDVWGQGTLVTVSS VL: ESVLTQPPSVSGAPGQRVTISCTGSSSNIGAHYDVHWYQQLPGTAPKLLIYGNDNRPSGVPDRFSGSKSGTSASLAITGLQAEDEADYYCQSYDYSLSGYVFGGGTKLTVL", "units.label": "s⁻¹", "koff": 0.000705}

Prompt line: Give its koff value. Item: mAb6_2.7 Fab (Fab, V domains shown, Recombinant Fab with 8xHis tag (Expi293F)) VH: ELQLQESGPGLVKPSETLSLTCTVSGGSITASNTYWGWIRQPPGKGLEWIGSIDYTGSTYYNPSLKSRVTISVDTSKNQFSLKLSSVTAADTAVYYCATGKYYETYLGFDVWGQGTLVTVSS VL: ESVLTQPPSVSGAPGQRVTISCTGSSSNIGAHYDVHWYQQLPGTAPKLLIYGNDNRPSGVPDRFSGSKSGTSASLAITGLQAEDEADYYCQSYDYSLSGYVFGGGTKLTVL
Response line: 0.00018

Prompt line: // returns reported koff for input mAb6_2.5 Fab (Fab, V domains shown, Recombinant Fab with 8xHis tag (Expi293F)) VH: ELQLQESGPGLVKPSETLSLTCTVSGGSITASNYYWGWIRQPPGKGLEWIGSIDYTGSTYYEPSLKSRVTISVDTSKNQFSLKLSSVTAADTAVYYCATGSYYETYLGFDVWGQGTLVTVSS VL: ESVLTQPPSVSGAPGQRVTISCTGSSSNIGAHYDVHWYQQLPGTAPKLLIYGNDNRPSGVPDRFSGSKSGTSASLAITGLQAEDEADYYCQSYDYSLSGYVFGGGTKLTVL
Response line: 0.000476

# credit: patent US20230235040A1
